Tested on: OVCAR-3 ovarian cancer cell line
assay: NCI antiproliferative screening, 5-dose
Assay type: cell-based
condition summary: concentration producing 50% inhibition, mean of duplicate experiments
measured parameter: pIC50
Please keep in mind that pIC50 is minus log10 of the molar concentration; only the number is needed.

### Prompt So what does the record say about pIC50 for Nc1nccc2c1ccn2-c1cccc(NC(=O)c2ccc(N3CCOCC3)c(C(F)(F)F)c2)c1 [Compound 1r] ?
### Response 6.62

----------
measured target: FMS kinase (Homo sapiens, UniProt P07333)
Sequence (P07333 20-972): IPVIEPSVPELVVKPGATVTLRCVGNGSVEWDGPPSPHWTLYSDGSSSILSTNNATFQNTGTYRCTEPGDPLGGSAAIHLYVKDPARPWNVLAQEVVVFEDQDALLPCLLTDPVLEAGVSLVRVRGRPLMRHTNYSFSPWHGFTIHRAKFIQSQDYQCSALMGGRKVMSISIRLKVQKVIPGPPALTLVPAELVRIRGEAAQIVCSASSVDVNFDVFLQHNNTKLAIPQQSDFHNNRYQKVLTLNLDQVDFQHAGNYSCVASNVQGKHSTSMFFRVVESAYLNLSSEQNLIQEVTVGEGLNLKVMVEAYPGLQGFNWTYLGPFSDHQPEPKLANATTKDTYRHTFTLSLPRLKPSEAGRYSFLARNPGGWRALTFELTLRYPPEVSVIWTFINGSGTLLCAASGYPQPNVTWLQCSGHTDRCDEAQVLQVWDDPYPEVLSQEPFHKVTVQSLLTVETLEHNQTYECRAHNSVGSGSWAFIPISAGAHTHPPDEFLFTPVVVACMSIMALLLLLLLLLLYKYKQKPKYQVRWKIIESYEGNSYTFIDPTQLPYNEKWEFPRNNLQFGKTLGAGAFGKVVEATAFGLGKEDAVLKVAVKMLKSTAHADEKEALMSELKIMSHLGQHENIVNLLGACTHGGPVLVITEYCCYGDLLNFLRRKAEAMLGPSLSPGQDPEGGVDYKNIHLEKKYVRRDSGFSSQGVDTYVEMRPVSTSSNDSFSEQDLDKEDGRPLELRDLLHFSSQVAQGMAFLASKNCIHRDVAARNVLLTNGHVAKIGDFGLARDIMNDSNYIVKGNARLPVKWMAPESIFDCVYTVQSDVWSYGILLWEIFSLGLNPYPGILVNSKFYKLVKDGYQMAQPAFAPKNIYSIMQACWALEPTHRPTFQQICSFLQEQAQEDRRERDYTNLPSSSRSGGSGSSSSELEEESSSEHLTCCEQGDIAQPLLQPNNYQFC
measured parameter: IC50 (nM)
Field: numeric (nM). Do not append units.

Please review the following examples before continuing.
molecule | measured parameter | recorded number
Nc1nccc2c1ccn2-c1ccc(NC(=O)c2ccc(N3CCOCC3)c(C(F)(F)F)c2)cc1 [Compound 1p] | IC50 | 100
O=C(Nc1cccc(-n2ccc3c(NC(=O)c4ccccc4)nccc32)c1)c1ccc(Cl)c(Cl)c1 [Compound 1g] | IC50 | 1270

As a next step, examine the molecule that follows.
### Prompt Lab note: need IC50 with FMS kinase (Homo sapiens, UniProt P07333) for entry Nc1nccc2c1ccn2-c1ccc(NC(=O)Nc2cc(C(F)(F)F)cc(C(F)(F)F)c2)cc1 [Compound 1m] , please look it up.
### Response 1450

----------
Tested on: OVCAR-8 ovarian cancer cell line
assay: NCI antiproliferative screening, 5-dose
Format: cell-based
condition summary: concentration producing 50% inhibition, mean of duplicate experiments
measured parameter: pIC50
Please keep in mind that pIC50 is minus log10 of the molar concentration; only the number is needed.

### Prompt Lab note: need pIC50 with OVCAR-8 ovarian cancer cell line for entry Nc1nccc2c1ccn2-c1cccc(NC(=O)c2ccc(N3CCOCC3)c(C(F)(F)F)c2)c1 , please look it up.
### Response 5.90

----------
System: bone marrow-derived macrophages (BMDM)
assay: BMDM assay, CSF-1-induced BMDM growth (Alamar Blue)
Type: cell-based, C57BL6 murine
condition summary: 5 days, triplicate assay, mean ± SEM, 10-dose from 1 µM, read-out: IC50 against bone marrow-derived macrophages (BMDM)
measured parameter: pIC50
Please keep in mind that pIC50 is minus log10 of the molar concentration; only the number is needed.

### Prompt So what does the record say about pIC50 for Nc1nccc2c1ccn2-c1cccc(NC(=O)c2ccc(N3CCOCC3)c(C(F)(F)F)c2)c1 [Compound 1r] ?
### Response 7.08

----------
System: DU-145 prostate cancer cell line
assay: NCI antiproliferative screening, 5-dose
Assay type: cell-based
condition summary: concentration producing 50% inhibition, mean of duplicate experiments
measured parameter: IC50
Dear colleague, please send the value followed by its unit.

### Prompt Lab note: need IC50 with DU-145 prostate cancer cell line for entry Nc1nccc2c1ccn2-c1cccc(NC(=O)c2ccc(N3CCOCC3)c(C(F)(F)F)c2)c1 [Compound 1r] , please look it up.
### Response 1300 nM

----------
Tested on: HS 578T breast cancer cell line
assay: NCI antiproliferative screening, 5-dose
Assay type: cell-based
condition summary: Homo sapiens, concentration producing 50% inhibition, mean of duplicate experiments
measured parameter: IC50 (nM)
Field: numeric (nM). Do not append units.

### Prompt So what does the record say about IC50 for O=C(Nc1cccc(-n2ccc3c(NC(=O)c4ccccc4)nccc32)c1)c1ccc(N2CCOCC2)c(C(F)(F)F)c1 [KIST101029, reference compound] ?
### Response 990

----------
System: OVCAR-8 ovarian cancer cell line
assay: NCI antiproliferative screening, 5-dose
Type: cell-based
condition summary: Homo sapiens, concentration producing 50% inhibition, mean of duplicate experiments
measured parameter: IC50 (µM)
Field: numeric (µM). Do not append units.

### Prompt So what does the record say about IC50 for O=C(Nc1cccc(-n2ccc3c(NC(=O)c4ccccc4)nccc32)c1)c1ccc(N2CCOCC2)c(C(F)(F)F)c1 [KIST101029, reference compound] ?
### Response 0.06

----------
Tested on: MDA-MB-468 breast cancer cell line
assay: NCI antiproliferative screening, 5-dose
Type: cell-based
condition summary: concentration producing 50% inhibition, mean of duplicate experiments
measured parameter: IC50 (nM)
Field: numeric (nM). Do not append units.

### Prompt So what does the record say about IC50 for Nc1nccc2c1ccn2-c1cccc(NC(=O)c2ccc(N3CCOCC3)c(C(F)(F)F)c2)c1 ?
### Response 300

----------
Listed next: entries and their corresponding melting point.

Please review the following examples before continuing.
smiles data | melting point
O=C(Nc1cccc(-n2ccc3c(NC(=O)c4ccccc4)nccc32)c1)c1cccc(C(F)(F)F)c1 | 142 to 144 °C
O=C(Nc1ccc(-n2ccc3c(NC(=O)c4ccccc4)nccc32)cc1)Nc1cc(C(F)(F)F)cc(C(F)(F)F)c1 | > 280 °C
Nc1nccc2c1ccn2-c1ccc(NC(=O)Nc2ccc(Cl)c(C(F)(F)F)c2)cc1 | > 280 °C
Nc1nccc2c1ccn2-c1cccc(NC(=O)c2ccc(Cl)c(Cl)c2)c1 | > 280 °C
Nc1nccc2c1ccn2-c1ccc(NC(=O)c2ccc(N3CCOCC3)c(C(F)(F)F)c2)cc1 | 253 to 256 °C (dec.)

As a next step, examine the molecule that follows.
### Prompt So what does the record say about melting point for O=C(Nc1cccc(-n2ccc3c(NC(=O)c4ccccc4)nccc32)c1)Nc1ccc(Cl)c(C(F)(F)F)c1 ?
### Response 143 to 145 °C
